Ref: paper PMC5733478

# tested_on: human A3AR (Homo sapiens, UniProt P0DMS8)
# Construct: expressed in transfected cells
# Sequence (P0DMS8 1-318): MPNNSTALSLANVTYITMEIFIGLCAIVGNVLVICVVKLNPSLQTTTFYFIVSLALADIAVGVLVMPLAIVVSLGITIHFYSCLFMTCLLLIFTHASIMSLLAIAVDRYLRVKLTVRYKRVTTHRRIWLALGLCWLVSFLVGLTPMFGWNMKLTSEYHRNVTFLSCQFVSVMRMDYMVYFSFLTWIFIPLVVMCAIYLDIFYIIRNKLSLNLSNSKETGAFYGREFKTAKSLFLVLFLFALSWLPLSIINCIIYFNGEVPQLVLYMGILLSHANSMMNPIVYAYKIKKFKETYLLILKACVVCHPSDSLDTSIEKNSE
# protocol_summary: LOPAC library primary screen: single concentration (10 μM) inhibition of 25 nM CA200645 binding, PHERAstar FS
Structures can show the parent of a compound that is named as a salt.
In this section, each of the compounds is paired with its reported % 25 nM CA200645 binding.
Number only, in %; omit the unit.

// below: answered compounds
| compound | % 25 nM CA200645 binding (%) |
| --- | --- |
| Oc1ccc(C2CNCCc3c2cc(O)c(O)c3Cl)cc1 (stereo not drawn) [Fenoldopam bromide] | 90.6 |
| O=C(C1CCCCC1)N1CC(=O)N2CCc3ccccc3C2C1 (stereo not drawn) | 100.5 |
| Nc1nc2c(ncn2CCOCP(=O)(O)O)c(=O)[nH]1 [PMEG hydrate] | 97.6 |

Challenge: Any idea what its % 25 nM CA200645 binding is? The compound is COc1ccc(C(=O)NCc2cccnc2)cc1C(=O)NCc1cccnc1 [Picotamide]
Response given: 109.0

Challenge: Param item = CC(C)(C)NCC(O)c1cc(O)cc(O)c1.CC(C)(C)NCC(O)c1cc(O)cc(O)c1.O=S(=O)(O)O (stereo not drawn) [Terbutaline hemisulfate] ; retrieve measured % 25 nM CA200645 binding.
Response given: 102.8

Challenge: If you can, please state the reported % 25 nM CA200645 binding value of CNCCCC12CCC(c3ccccc31)c1ccccc12 [Maprotiline hydrochloride] .
Response given: 93.0
